Property: log10(MIC); scope: individual molecules
- Tested on: Staphylococcus aureus
- Procedure summary: Antibacterial activity against antibiotic resistant Staphylococcus aureus ATCC 33592 assessed as inhibition of bacterial growth by CLSI protocol based broth microdilution method
- Format: functional
Metric: log10(MIC) (log10 of the value in µg/mL)

Line notation | Numeric result
Cc1cc(NCc2cn(-c3ccc(C(F)(F)F)cc3)nc2-c2ccc(C(=O)O)cc2)ccc1Br | 0.49
O=C(O)c1ccc(-c2nn(-c3ccc(C(F)(F)F)cc3)cc2CNc2ccc(C(F)(F)F)cc2)cc1 | 0.80
O=C(O)c1ccc(-c2nn(-c3ccc(C(F)(F)F)cc3)cc2CNc2cccc(Cl)c2F)cc1 | 0.49
Cc1ccc(NCc2cn(-c3ccc(C(F)(F)F)cc3)nc2-c2ccc(C(=O)O)cc2)cc1Cl | 0.49
O=C(O)c1ccc(-c2nn(-c3ccc(C(F)(F)F)cc3)cc2CNc2ccc(F)cc2)cc1 | 1.40
CC(C)(C)c1ccc(NCc2cn(-c3ccc(C(F)(F)F)cc3)nc2-c2ccc(C(=O)O)cc2)cc1 | 0.19
COc1ccc(NCc2cn(-c3ccc(C(F)(F)F)cc3)nc2-c2ccc(C(=O)O)cc2)cc1 | 1.40
Cc1cc(NCc2cn(-c3ccc(C(F)(F)F)cc3)nc2-c2ccc(C(=O)O)cc2)ccc1F | 0.80
O=C(O)c1ccc(-c2nn(-c3ccc(C(F)(F)F)cc3)cc2CNc2ccc([N+](=O)[O-])cc2)cc1 | 1.10
O=C(O)c1ccc(-c2nn(-c3ccc(C(F)(F)F)cc3)cc2CNc2ccc(Oc3ccccc3)cc2)cc1 | 0.19
O=C(O)c1ccc(-c2nn(-c3ccc(C(F)(F)F)cc3)cc2CNc2ccc(F)c([N+](=O)[O-])c2)cc1 | 1.10
CC(C)c1ccc(NCc2cn(-c3ccc(C(F)(F)F)cc3)nc2-c2ccc(C(=O)O)cc2)cc1 | 0.49
O=C(O)c1ccc(-c2nn(-c3ccc(C(F)(F)F)cc3)cc2CNc2ccc(Br)c(C(F)(F)F)c2)cc1 | -0.11
CN1CCN(c2ccc(NCc3cn(-c4ccc(C(F)(F)F)cc4)nc3-c3ccc(C(=O)O)cc3)cc2C(F)(F)F)CC1 | 1.10
CSc1ccc(NCc2cn(-c3ccc(C(F)(F)F)cc3)nc2-c2ccc(C(=O)O)cc2)cc1 | 1.40
O=C(O)c1ccc(-c2nn(-c3ccc(C(F)(F)F)cc3)cc2CNc2ccc(Cl)c(Cl)c2)cc1 | 0.19
O=C(O)c1ccc(-c2nn(-c3ccc(C(F)(F)F)cc3)cc2CNc2cccc(F)c2)cc1 | 1.40
O=C(O)c1ccc(-c2nn(-c3ccc(C(F)(F)F)cc3)cc2CNc2ccccc2)cc1 | 1.40
COc1ccc(NCc2cn(-c3ccc(C(F)(F)F)cc3)nc2-c2ccc(C(=O)O)cc2)cc1C(F)(F)F | 1.10

###

- Tested on: Staphylococcus aureus
- Procedure summary: Antibacterial activity against antibiotic resistant Staphylococcus aureus BAA-2312 assessed as inhibition of bacterial growth by CLSI protocol based broth microdilution method
- Format: functional
Property: MIC; scope: individual compounds
Metric: MIC

Line notation | Metric | Result
O=C(O)c1ccc(-c2nn(-c3ccc(C(F)(F)F)cc3)cc2CNc2ccc([N+](=O)[O-])cc2)cc1 | MIC | 25 µg/mL
O=C(O)c1ccc(-c2nn(-c3ccc(C(F)(F)F)cc3)cc2CNc2ccc(Br)c(C(F)(F)F)c2)cc1 | MIC | 1.56 µg/mL
Cc1ccc(NCc2cn(-c3ccc(C(F)(F)F)cc3)nc2-c2ccc(C(=O)O)cc2)cc1Cl | MIC | 3.12 µg/mL
O=C(O)c1ccc(-c2nn(-c3ccc(C(F)(F)F)cc3)cc2CNc2cccc(Cl)c2F)cc1 | MIC | 6.25 µg/mL
O=C(O)c1ccc(-c2nn(-c3ccc(C(F)(F)F)cc3)cc2CNc2ccc(C(F)(F)F)cc2)cc1 | MIC | 12.5 µg/mL
O=C(O)c1ccc(-c2nn(-c3ccc(C(F)(F)F)cc3)cc2CNc2cccc(F)c2)cc1 | MIC | 25 µg/mL
COc1ccc(NCc2cn(-c3ccc(C(F)(F)F)cc3)nc2-c2ccc(C(=O)O)cc2)cc1C(F)(F)F | MIC | 12.5 µg/mL
O=C(O)c1ccc(-c2nn(-c3ccc(C(F)(F)F)cc3)cc2CNc2ccc(F)c([N+](=O)[O-])c2)cc1 | MIC | 25 µg/mL
O=C(O)c1ccc(-c2nn(-c3ccc(C(F)(F)F)cc3)cc2CNc2ccc(F)cc2)cc1 | MIC | 25 µg/mL

###

Property: MIC; scope: individual compounds
- Test system: Staphylococcus aureus
- Procedure summary: Antibacterial activity against antibiotic resistant Staphylococcus aureus ATCC 33592 assessed as inhibition of bacterial growth by CLSI protocol based broth microdilution method
- Format: functional
Metric: MIC (µg/mL)

Line notation | Metric | Numeric result
O=C(O)c1ccc(-c2nn(-c3ccc(C(F)(F)F)cc3)cc2CNc2cccc(Br)c2)cc1 | MIC | 6.25
O=C(O)c1ccc(-c2nn(-c3ccc(C(F)(F)F)cc3)cc2CNc2ccc(F)c(F)c2)cc1 | MIC | 6.25
O=C(O)c1ccc(-c2nn(-c3ccc(C(F)(F)F)cc3)cc2CNc2ccc(Cl)cc2)cc1 | MIC | 6.25
O=C(O)c1ccc(-c2nn(-c3ccc(C(F)(F)F)cc3)cc2CNc2ccc(F)c(Cl)c2)cc1 | MIC | 3.12
O=C(O)c1ccc(-c2nn(-c3ccc(C(F)(F)F)cc3)cc2CNc2ccc(Br)cc2)cc1 | MIC | 3.12

###

- System: Staphylococcus aureus
- Procedure summary: Antibacterial activity against antibiotic resistant Staphylococcus aureus ATCC 700699 assessed as inhibition of bacterial growth by CLSI protocol based broth microdilution method
- Type: functional
Metric: MIC (µg/mL)

Line notation | Numeric result
O=C(O)c1ccc(-c2nn(-c3ccc(C(F)(F)F)cc3)cc2CNc2ccc(F)c(Cl)c2)cc1 | 3.12
CN1CCN(c2ccc(NCc3cn(-c4ccc(C(F)(F)F)cc4)nc3-c3ccc(C(=O)O)cc3)cc2C(F)(F)F)CC1 | 12.5
Cc1cc(NCc2cn(-c3ccc(C(F)(F)F)cc3)nc2-c2ccc(C(=O)O)cc2)ccc1F | 6.25
O=C(O)c1ccc(-c2nn(-c3ccc(C(F)(F)F)cc3)cc2CNc2cccc(F)c2)cc1 | 12.5
O=C(O)c1ccc(-c2nn(-c3ccc(C(F)(F)F)cc3)cc2CNc2ccc([N+](=O)[O-])cc2)cc1 | 12.5
O=C(O)c1ccc(-c2nn(-c3ccc(C(F)(F)F)cc3)cc2CNc2ccc(Cl)c(Cl)c2)cc1 | 0.78
COc1ccc(NCc2cn(-c3ccc(C(F)(F)F)cc3)nc2-c2ccc(C(=O)O)cc2)cc1C(F)(F)F | 6.25
O=C(O)c1ccc(-c2nn(-c3ccc(C(F)(F)F)cc3)cc2CNc2cccc(Cl)c2F)cc1 | 3.12
COc1ccc(NCc2cn(-c3ccc(C(F)(F)F)cc3)nc2-c2ccc(C(=O)O)cc2)cc1 | 25
O=C(O)c1ccc(-c2nn(-c3ccc(C(F)(F)F)cc3)cc2CNc2cccc(Br)c2)cc1 | 3.12
CC(C)(C)c1ccc(NCc2cn(-c3ccc(C(F)(F)F)cc3)nc2-c2ccc(C(=O)O)cc2)cc1 | 1.56
Cc1cc(NCc2cn(-c3ccc(C(F)(F)F)cc3)nc2-c2ccc(C(=O)O)cc2)ccc1Br | 1.56
O=C(O)c1ccc(-c2nn(-c3ccc(C(F)(F)F)cc3)cc2CNc2ccc(F)c([N+](=O)[O-])c2)cc1 | 6.25
O=C(O)c1ccc(-c2nn(-c3ccc(C(F)(F)F)cc3)cc2CNc2ccc(Cl)cc2)cc1 | 6.25
O=C(O)c1ccc(-c2nn(-c3ccc(C(F)(F)F)cc3)cc2CNc2ccccc2)cc1 | 25
Cc1ccc(NCc2cn(-c3ccc(C(F)(F)F)cc3)nc2-c2ccc(C(=O)O)cc2)cc1Cl | 1.56
O=C(O)c1ccc(-c2nn(-c3ccc(C(F)(F)F)cc3)cc2CNc2ccc(F)cc2)cc1 | 12.5
CC(C)c1ccc(NCc2cn(-c3ccc(C(F)(F)F)cc3)nc2-c2ccc(C(=O)O)cc2)cc1 | 3.12

###

- System: Staphylococcus aureus
- Procedure summary: Antibacterial activity against antibiotic susceptible Staphylococcus aureus ATCC 25923 assessed as inhibition of bacterial growth by CLSI protocol based broth microdilution method
- Assay type: functional
Metric: MIC (µg/mL)

Line notation | Study system | Metric | Numeric result
O=C(O)c1ccc(-c2nn(-c3ccc(C(F)(F)F)cc3)cc2CNc2cccc(Cl)c2F)cc1 | Staphylococcus aureus | MIC | 3.12
O=C(O)c1ccc(-c2nn(-c3ccc(C(F)(F)F)cc3)cc2CNc2cccc(F)c2)cc1 | Staphylococcus aureus | MIC | 25
Cc1ccc(NCc2cn(-c3ccc(C(F)(F)F)cc3)nc2-c2ccc(C(=O)O)cc2)cc1Cl | Staphylococcus aureus | MIC | 3.12
CSc1ccc(NCc2cn(-c3ccc(C(F)(F)F)cc3)nc2-c2ccc(C(=O)O)cc2)cc1 | Staphylococcus aureus | MIC | 12.5
COc1ccc(NCc2cn(-c3ccc(C(F)(F)F)cc3)nc2-c2ccc(C(=O)O)cc2)cc1C(F)(F)F | Staphylococcus aureus | MIC | 12.5
O=C(O)c1ccc(-c2nn(-c3ccc(C(F)(F)F)cc3)cc2CNc2ccc(Cl)cc2)cc1 | Staphylococcus aureus | MIC | 6.25
O=C(O)c1ccc(-c2nn(-c3ccc(C(F)(F)F)cc3)cc2CNc2ccc(Br)c(C(F)(F)F)c2)cc1 | Staphylococcus aureus | MIC | 0.78
O=C(O)c1ccc(-c2nn(-c3ccc(C(F)(F)F)cc3)cc2CNc2ccc([N+](=O)[O-])cc2)cc1 | Staphylococcus aureus | MIC | 25
O=C(O)c1ccc(-c2nn(-c3ccc(C(F)(F)F)cc3)cc2CNc2ccc(F)c(Cl)c2)cc1 | Staphylococcus aureus | MIC | 3.12
COc1ccc(NCc2cn(-c3ccc(C(F)(F)F)cc3)nc2-c2ccc(C(=O)O)cc2)cc1 | Staphylococcus aureus | MIC | 50
O=C(O)c1ccc(-c2nn(-c3ccc(C(F)(F)F)cc3)cc2CNc2ccc(F)c(F)c2)cc1 | Staphylococcus aureus | MIC | 12.5
O=C(O)c1ccc(-c2nn(-c3ccc(C(F)(F)F)cc3)cc2CNc2ccc(Oc3ccccc3)cc2)cc1 | Staphylococcus aureus | MIC | 1.56
O=C(O)c1ccc(-c2nn(-c3ccc(C(F)(F)F)cc3)cc2CNc2ccccc2)cc1 | Staphylococcus aureus | MIC | 25
Cc1cc(NCc2cn(-c3ccc(C(F)(F)F)cc3)nc2-c2ccc(C(=O)O)cc2)ccc1Br | Staphylococcus aureus | MIC | 3.12
CN[C@H](CC(C)C)C(=O)N[C@H]1C(=O)N[C@@H](CC(N)=O)C(=O)N[C@H]2C(=O)N[C@H]3C(=O)N[C@H](C(=O)N[C@H](C(=O)O)c4cc(O)cc(O)c4-c4cc3ccc4O)[C@H](O)c3ccc(c(Cl)c3)Oc3cc2cc(c3O[C@@H]2O[C@H](CO)[C@@H](O)[C@H](O)[C@H]2O[C@H]2C[C@](C)(N)[C@H](O)[C@H](C)O2)Oc2ccc(cc2Cl)[C@H]1O | Staphylococcus aureus | MIC | 0.78
